System: PC12 cells
Assay: Acetylcholinesterase activity assay (AChE release from PC12 cells, Ellman reagent)
Format: cell-based
Conditions: Aβ 5 μM + small peptide 0.5 μM; % AChE release compared to untreated control
Ends that are not written are not given here.
recorded_metric: AChE

Worked set:
HWKAEFHR [NBP-801] ... 108.63%
HWKAEFHRWSSY [NBP-1201] ... 94.84%
WSSYMVH [NBP-709] ... 108.99%

Turning to the following substance.
Input: Param item = RWSSYMVHWKA [NBP-1108] ; retrieve measured AChE.
Output: 82.74%
